Provide the reported RBAβ of each item.
- Study Target: ERβ (Homo sapiens, UniProt Q92731)
- Sequence (Q92731 whole entry): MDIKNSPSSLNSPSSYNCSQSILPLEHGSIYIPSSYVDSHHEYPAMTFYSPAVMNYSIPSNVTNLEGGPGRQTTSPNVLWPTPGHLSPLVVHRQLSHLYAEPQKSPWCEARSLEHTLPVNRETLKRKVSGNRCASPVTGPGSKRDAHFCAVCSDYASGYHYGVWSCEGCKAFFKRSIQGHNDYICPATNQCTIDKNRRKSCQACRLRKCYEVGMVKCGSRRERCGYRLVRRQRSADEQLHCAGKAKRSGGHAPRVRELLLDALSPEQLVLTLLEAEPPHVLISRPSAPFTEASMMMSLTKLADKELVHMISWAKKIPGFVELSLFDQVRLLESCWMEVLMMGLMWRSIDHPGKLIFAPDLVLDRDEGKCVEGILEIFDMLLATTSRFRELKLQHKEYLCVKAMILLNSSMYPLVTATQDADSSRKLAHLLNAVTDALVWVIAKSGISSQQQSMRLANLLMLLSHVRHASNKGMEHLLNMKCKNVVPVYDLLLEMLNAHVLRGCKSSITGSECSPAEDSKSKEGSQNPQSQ
- Assay Protocol: Relative binding affinity (RBA), radiolabel competition assay, estrogen beta receptor
- Stated Conditions: estradiol=100; 9-hydroxy compounds, natural stereochemistry at C9

Please state recorded RBAβ (tested on ERβ (Homo sapiens, UniProt Q92731)) of C[C@]12CC[C@](O)(c3ccc(O)cc3F)CC1CC[C@@H]2O (stereo partly shown) [Entry 29]
3.6

Please state recorded RBAβ (tested on ERβ (Homo sapiens, UniProt Q92731)) of C[C@]12CC[C@](O)(c3cc(F)c(O)c(F)c3)CC1CC[C@@H]2O (stereo partly shown) [Entry 30]
0.023

Please state recorded RBAβ (tested on ERβ (Homo sapiens, UniProt Q92731)) of C[C@]12CC[C@](O)(c3ccc(O)cc3)CC1CC[C@@H]2O (stereo partly shown) [Entry 27]
0.1

Please state recorded RBAβ (tested on ERβ (Homo sapiens, UniProt Q92731)) of C[C@]12CC[C@](O)(c3ccc(O)c(F)c3)CC1CC[C@@H]2O (stereo partly shown) [Entry 28]
0.12

###

- Study Target: UniProt P03372
- Assay Protocol: Relative binding affinity (RBA), radiolabel competition assay, estrogen alpha receptor
- Stated Conditions: estradiol=100; double bond in ring C (C9-C11 or C9-C8); tested as mixtures except entries 16, 17, 19, 20, 25, 26
Is RBAα at least 0.4? Then Fulfilled. If not, Not fulfilled.

Is RBAα at least 0.4? Consider C[C@]12CCC(c3ccc(O)cc3CCSCc3ccccc3)=CC1CC[C@@H]2O (stereo partly drawn)
Not fulfilled

Is RBAα at least 0.4? Consider C[C@]12CCC(c3ccc(O)cc3Cl)=CC1CC[C@@H]2O (stereo partly drawn)
Fulfilled

Is RBAα at least 0.4? Consider C[C@]12CC=C(c3ccc(O)cc3Cl)CC1CC[C@@H]2O (stereo partly drawn)
Fulfilled

Is RBAα at least 0.4? Consider C[C@]12CC=C(c3ccc(O)cc3CCSCc3ccccc3)CC1CC[C@@H]2O (stereo partly drawn)
Not fulfilled

Is RBAα at least 0.4? Consider C[C@]12CCC(c3cc(F)c(O)cc3F)=CC1CC[C@@H]2O (stereo partly drawn)
Not fulfilled

Is RBAα at least 0.4? Consider C[C@]12CC=C(c3cc(F)c(O)cc3F)CC1CC[C@@H]2O (stereo partly drawn)
Fulfilled

###

- Study Target: ERβ (Homo sapiens, UniProt Q92731)
- Assay Protocol: Relative binding affinity (RBA), radiolabel competition assay, estrogen beta receptor
- Stated Conditions: estradiol=100; double bond in ring C (C9-C11 or C9-C8); tested as mixtures except entries 16, 17, 19, 20, 25, 26
Recorded Endpoint: RBAβ
Form rule: numeric answer, no unit written next to it.

Please state recorded RBAβ (tested on ERβ (Homo sapiens, UniProt Q92731)) of C[C@]12CCC(c3ccc(O)cc3CCSCc3ccccc3)=CC1CC[C@@H]2O (stereo partly drawn)
0.27

Please state recorded RBAβ (tested on ERβ (Homo sapiens, UniProt Q92731)) of C[C@]12CC=C(c3cc(F)c(O)cc3F)CC1CC[C@@H]2O (stereo partly drawn)
2.6

Please state recorded RBAβ (tested on ERβ (Homo sapiens, UniProt Q92731)) of C[C@]12CCC(c3ccc(O)cc3Cl)=CC1CC[C@@H]2O (stereo partly drawn)
331

Please state recorded RBAβ (tested on ERβ (Homo sapiens, UniProt Q92731)) of C[C@]12CC=C(c3ccc(O)cc3Cl)CC1CC[C@@H]2O (stereo partly drawn)
118

Please state recorded RBAβ (tested on ERβ (Homo sapiens, UniProt Q92731)) of C[C@]12CC=C(c3ccc(O)cc3CCSCc3ccccc3)CC1CC[C@@H]2O (stereo partly drawn)
0.76

Please state recorded RBAβ (tested on ERβ (Homo sapiens, UniProt Q92731)) of C[C@]12CCC(c3cc(F)c(O)cc3F)=CC1CC[C@@H]2O (stereo partly drawn)
3.3

###

- Assay Protocol: in vitro
Recorded Endpoint: CC50 at 2 h

# get_value(readout='CC50 at 2 h', item= C[C@]12CC[C@@H]3c4ccc(O)cc4CC[C@H]3[C@@H]1CC[C@@H]2O [Estradiol, 17β-estradiol, reference compound] )
400 to 450 µM

###

- Study Target: ERα (Homo sapiens)
- Sequence (P03372 whole entry): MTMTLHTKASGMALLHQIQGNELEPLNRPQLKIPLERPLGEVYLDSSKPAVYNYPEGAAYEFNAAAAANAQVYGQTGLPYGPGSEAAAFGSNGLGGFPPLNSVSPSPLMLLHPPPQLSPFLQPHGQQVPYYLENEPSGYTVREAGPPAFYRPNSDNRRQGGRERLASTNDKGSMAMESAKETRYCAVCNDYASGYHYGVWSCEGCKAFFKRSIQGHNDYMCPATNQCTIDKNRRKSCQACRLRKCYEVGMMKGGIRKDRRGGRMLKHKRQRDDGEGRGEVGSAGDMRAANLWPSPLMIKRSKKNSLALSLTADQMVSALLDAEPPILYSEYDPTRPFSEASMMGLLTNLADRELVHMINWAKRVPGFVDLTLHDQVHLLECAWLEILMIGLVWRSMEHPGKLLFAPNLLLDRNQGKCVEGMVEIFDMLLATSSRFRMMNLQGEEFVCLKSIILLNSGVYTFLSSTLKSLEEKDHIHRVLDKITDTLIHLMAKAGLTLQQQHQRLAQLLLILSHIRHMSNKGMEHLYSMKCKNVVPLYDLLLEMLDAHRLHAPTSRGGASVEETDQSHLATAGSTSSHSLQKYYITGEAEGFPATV
- Assay Protocol: Relative transcription assay (RTA), estrogen response element driven luciferase, estrogen alpha receptor
- Format: cell-based
- Stated Conditions: relative transcription activity, estradiol=100
Lab note: anything with RTAα below 10 is marked True; values at 10 or higher are marked False.

# check: RTAα < 10 for C[C@]12CC[C@H](c3ccc(O)cc3Cl)CC1CC[C@@H]2O (stereo partly shown)
False

# check: RTAα < 10 for C[C@]12CC=C(c3ccc(O)cc3Cl)CC1CC[C@@H]2O (stereo partly shown)
False

# check: RTAα < 10 for C[C@]12CC[C@H](c3cc(F)c(O)c(F)c3F)CC1CC[C@@H]2O (stereo partly shown)
False

# check: RTAα < 10 for C[C@]12CCC(c3ccc(O)cc3CCSCc3ccccc3)=CC1CC[C@@H]2O (stereo partly shown)
True

# check: RTAα < 10 for C[C@]12CC[C@H](c3ccc(O)cc3F)CC1CC[C@@H]2O (stereo partly shown)
False

# check: RTAα < 10 for C[C@]12CC[C@H](c3ccc(O)c(F)c3F)CC1CC[C@@H]2O (stereo partly shown)
False

# check: RTAα < 10 for C[C@]12CC[C@H](c3ccc(O)cc3)CC1CC[C@@H]2O (stereo partly shown)
True

# check: RTAα < 10 for Cc1cc(O)ccc1[C@H]1CC[C@@]2(C)C(CC[C@@H]2O)C1 (stereo partly shown)
True

# check: RTAα < 10 for C[C@]12CC[C@H](c3ccc(O)c(F)c3)CC1CC[C@@H]2O (stereo partly shown)
True

# check: RTAα < 10 for C[C@]12CCC(c3ccc(O)cc3Cl)=CC1CC[C@@H]2O (stereo partly shown)
False
